Every entry's value here was drawn from PubChem BioAssay (NCI).

- Tested on: SK-MEL-2 melanoma
- protocol.details: NCI-60 one-dose screen, 48 h (100 = growth as untreated, 0 = no growth, -100 = all killed)
- measurement.conditions: 10 µM unless noted
- Procedure: Growth inhibition of the SK-MEL-2 human tumor cell line is measured as a screen for anti-cancer activity. Cells are grown in 96 well plates and exposed to the test compound for 48 hours. Compounds are tested at a single concentration, which is 10^-5 M for most compounds. The reported endpoint is percent growth (GI% or GIPRCNT), where numbers from 0 - 100% represent growth inhibition, and numbers from -100% - 0 represent cell death. For example, a value of 40 represents 60% growth inhibition. […]
The panel holds about 83,000 compounds, 20% with a hit somewhere; the sample as a whole holds those more often. *1 amine or outer side, *2 acyl side, *3 side chain or, on linkers, in order; H or OH if unused. Where a SMILES comes first, the peptide text is derived from it. Bridges are numbered along the chain shown (N, C = ends). Roman numbers before positions name the chains, in order. [ ]: non-standard residue; d: D form. Actinocin(1to9) = Cc1c2oc3c(C)ccc(C(=O)[*:2])c3nc-2c(C(=O)[*:1])c(N)c1=O; NMeV = CN[CH](C(=O)O)C(C)C; Sar = CNCC(=O)O
observable: growth (%)
Write the number in % without appending the unit.

Prompt: Answer with the recorded growth of O=[N+]([O-])c1ccc(C(Br)c2ccc([N+](=O)[O-])cc2)cc1 only.
Response: 97.6

Prompt: Determine from records and report growth for CCCCCCCCCCCCCCCC[N+]1(C)CCCC1c1cccnc1 (configuration not stated)
Response: 98.1

Prompt: For the molecule CC(C)(C)CC(C)(C)c1ccc(OCCOCCSC(=N)N)cc1 , report growth.
Response: 85

Prompt: Could you please provide reported growth for Cc1cc2nc(CC(=O)c3ccncc3)c(=O)[nH]c2cc1C ? Thanks!
Response: 115

Prompt: Tell me its growth given CCC(C)C1NC(=O)C(NC(=O)c2c3nc4c(C(=O)NC5C(=O)NC(C(C)CC)C(=O)N6CCCC6C(=O)N(C)CC(=O)N(C)C(C(C)C)C(=O)OC5C)ccc(C)c4oc-3c(C)c(=O)c2N)C(C)OC(=O)C(C(C)C)N(C)C(=O)CN(C)C(=O)C2CCCN2C1=O (configuration not stated) (I: TIP[Sar][NMeV] / II: TIP[Sar][NMeV]; ester I:1-I:C, II:1-II:C; linker I:N-II:N via Actinocin(1to9); configuration not given here) as the entry.
Response: -43.2

Prompt: Tell me growth reported for COc1cc(/C=C2\SC(=S)N(/C=C/c3nc4ccccc4[nH]c3=O)C2=O)cc(OC)c1OC
Response: 81.1

Prompt: Please report growth for the following molecule: Cc1cccc2c(N)c3ccccc3nc12
Response: -28.5

Prompt: Recall and state the measured growth for O=C(c1ccccc1)N(CCCl)C(=O)N(CCCl)C(=O)c1ccccc1 .
Response: 93.5

Prompt: Let me know recorded growth for O=C1C=CC(=O)c2c(O)c(CO)c(CO)c(O)c21 , thanks.
Response: 119

Prompt: Give the reported value of growth for this record: O=C1C=CC(=O)N1c1ccc(O)cc1
Response: 107

Prompt: Identify measured growth corresponding to COC(=O)c1ccc(=O)c2nc3/c(=C/O)c(O)cc(=O)c3[nH]c12
Response: -7.27

Prompt: Input NC(=S)N/N=C/c1ncccc1O , output reported growth.
Response: 103

Prompt: Return growth for the following molecule: CC/C(=C(/CC)c1ccc(O)cc1)c1ccc(O)cc1
Response: 54.6

Prompt: Indicate its recorded growth; the molecule in question is CC(C)N=C(N)/N=C(\N)Nc1ccc2ccc3ccccc3c2c1
Response: -81.8

Prompt: // fetch growth given entry Nc1ccc(C(=O)/C=C/c2ccccc2)cc1
Response: 91.6

Prompt: Look up and report measured growth for this entry: CC(C)=CCCC(C)C1=C(O)C(=O)C(C)=CC1=O (configuration not stated)
Response: 92.9

Prompt: # return recorded growth for input O=C1C(=O)c2cccnc2-c2ncccc21
Response: -11.1

Prompt: Identify measured growth associated with CCOc1ccc(Nc2nc3c(s2)C(=O)c2ccccc2C3=O)cc1
Response: 101

Prompt: Please indicate growth recorded for Nc1nc2ncc(CNc3ccc(C(=O)NC(CCC(=O)NC(CCC(=O)NC(CCC(=O)NC(CCC(=O)NC(CCC(=O)O)C(=O)O)C(=O)O)C(=O)O)C(=O)O)C(=O)O)cc3)nc2c(=O)[nH]1 (configuration not stated)
Response: 118

Prompt: Give growth for O=C/C=C/c1ccc([N+](=O)[O-])cc1
Response: 103

Prompt: Supply recorded growth for O=[N+]([O-])c1ccc(N2CCN(Cc3ccccc3)CC2)c2c1no[n+]2[O-] here.
Response: 64.8

Prompt: Please look at this molecule and report its growth: CC1C(c2ccccc2)OCCN1C(=S)Nc1ccc(S(=O)(=O)N2CCCCC2)cc1 (configuration not stated)
Response: 104

Prompt: Give the reported growth for this molecule. CCOc1ccc(C(C[N+](=O)[O-])Sc2ccccc2N)cc1 (configuration not stated)
Response: 98.7

Prompt: // Input: O=C(OC12CC3CC(CC(C3)C1)C2)c1ccc(NCc2cc(O)ccc2O)cc1 . Output its growth only.
Response: -19.9

Prompt: Return growth (reported value) for this molecule: COc1ccc2c(c1)c(CC(=O)O)c(C)n2C(=O)c1ccc(Cl)cc1
Response: 106

Prompt: Please give measured growth of the following entry: CC(C)Nc1ccc(Nc2ccc(NC(C)C)cc2)cc1
Response: 69.9

Prompt: Check the records and state growth for COc1ccc2c(c1OC)OCC(CN(C)C)C2=O (configuration not stated)
Response: 112

Prompt: Write down growth measured for item OC(c1cc2ccc(C(F)(F)F)cc2c2cc(C(F)(F)F)ccc12)C1CCCCN1 (configuration not stated)
Response: -83.1

Prompt: Report measured growth; entry is Cc1cc(I)nc2ccccc12
Response: 110

Prompt: State its growth: CCCCCCCCCCCC[S+](C)CC(=O)[O-] (configuration not stated)
Response: 51.7

Prompt: Tell us which growth value is on record for CCCCCCCCCCCC(=O)OC(C)C(=O)NCCCC (configuration not stated)
Response: 108

Prompt: Dear colleague, please send me the reported growth for CN(C)c1ccc(/C=C/c2ccnc3ccccc23)cc1 when you can.
Response: -5.02

Prompt: Tell us which growth value is on record for O=C(/C=C/c1ccccc1)c1ccccc1O
Response: 98.6

Prompt: Please look at this molecule and report its growth: CCCC[n+]1c(/C=C\c2c(OC)cc(OC)cc2OC)ccc2ccccc21
Response: -44.7

Prompt: Return growth (reported value) for this molecule: N#CC1c2ccccc2C=CN1C(=O)CCCl (configuration not stated)
Response: 94.1

Prompt: Quote growth reported for CCCCCCCCCCCCCCCc1ccc(C(=O)C[n+]2ccccc2)cc1 please.
Response: -80.9

Prompt: Supply measured growth of CCCCCC/C=C1\CCC(CN2CCCC2)C1=O (configuration not stated) in your reply.
Response: 114
